target: ER β (Homo sapiens); construct: purchased Shanghai Tongwei Biotechnology Co., Ltd. (China); test: SPR binding measurements (Biacore T200) on immobilized ER β; details: SPR, ER β on CM5 chip, 25°C, PBS running buffer; read-out: Ka (association rate constant)
Measurement name: kon (M⁻¹ s⁻¹)

Previously resolved entries follow.
[[record]]
compound = "O=C(/C=C/c1ccc(O)c2oc(-c3ccc(O)c(O)c3)cc12)O[C@H](Cc1ccc(O)c(O)c1)C(=O)O [Salvianolic acid C]"
readout_units = "M⁻¹ s⁻¹"
recorded_result = 1390

[[record]]
compound = "O=C(/C=C/c1ccc(O)c2c1[C@H](C(=O)O[C@H](Cc1ccc(O)c(O)c1)C(=O)O)[C@@H](c1ccc(O)c(O)c1)O2)O[C@H](Cc1ccc(O)c(O)c1)C(=O)O [Salvianolic acid B]"
readout_units = "M⁻¹ s⁻¹"
recorded_result = 788


1. O=C(/C=C/c1ccc(O)c(O)c1)O[C@H](Cc1ccc(O)c(O)c1)C(=O)O [Rosmarinic acid]
2. O=c1c(O[C@@H]2O[C@H](CO)[C@@H](O)[C@H](O)[C@H]2O)c(-c2ccc(O)c(O)c2)oc2cc(O)cc(O)c12 [Isoquercitrin]
Prompt line: Short answer wanted: higher kon, 1 or 2 ? Let me know the label of the one you choose.
Response line: 2
(2: 3020 M⁻¹ s⁻¹, 1: 2020 M⁻¹ s⁻¹)

###

biological target: ER α (Homo sapiens, UniProt P03372); construct: purchased Shanghai Tongwei Biotechnology Co., Ltd. (China); test: Affinity ultrafiltration LC-MS screening (AUF-LC-MS) of Arnebiae Radix extract against ER α; settings: specific binding = Aa/Ab (relative peak area active group / denatured group), extract 5.0 mg/ml, ER α 200 µg/ml, 37°C 60 min, <1.5 = non-ligand
Sequence (P03372 whole entry): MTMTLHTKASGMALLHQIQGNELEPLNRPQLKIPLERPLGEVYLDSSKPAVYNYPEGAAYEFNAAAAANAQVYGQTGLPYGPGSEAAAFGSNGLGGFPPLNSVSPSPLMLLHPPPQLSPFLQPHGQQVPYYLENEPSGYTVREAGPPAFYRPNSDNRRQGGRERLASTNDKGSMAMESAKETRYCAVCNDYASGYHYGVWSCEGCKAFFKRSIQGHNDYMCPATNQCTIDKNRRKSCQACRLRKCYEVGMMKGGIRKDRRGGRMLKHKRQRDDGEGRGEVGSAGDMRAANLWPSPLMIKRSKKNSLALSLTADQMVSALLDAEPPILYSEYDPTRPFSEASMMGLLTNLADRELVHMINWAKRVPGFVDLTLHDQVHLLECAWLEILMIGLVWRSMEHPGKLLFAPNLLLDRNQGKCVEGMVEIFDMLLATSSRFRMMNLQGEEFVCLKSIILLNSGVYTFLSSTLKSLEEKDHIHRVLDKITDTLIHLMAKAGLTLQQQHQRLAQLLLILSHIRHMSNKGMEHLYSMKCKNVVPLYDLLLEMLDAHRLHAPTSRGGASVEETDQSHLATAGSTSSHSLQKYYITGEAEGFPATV
Measurement name: Specific binding

[[record]]
compound = "O=C(O)CC(O)(CC(=O)O)C(=O)O"
recorded_result = 5.02

[[record]]
compound = "CC(C)=CCCC1=CC(=O)c2c(O)ccc(O)c2C1=O"
recorded_result = 2.28

[[record]]
compound = "N[C@@H](Cc1ccccc1)C(=O)O"
recorded_result = 6.36


A. O=C(O)CCCCC(=O)O
B. COc1ccc(C2COc3cc(O)ccc3C2)c(OC)c1 (centres unmarked)
Prompt line: Sorting ascending by Specific binding, which comes first: A or B ? Mark your answer with the label of the selected entry.
Response line: B

###

This section presents compounds with their documented Rmax values.
molecular target: ER β (Homo sapiens); construct: purchased Shanghai Tongwei Biotechnology Co., Ltd. (China); assay: SPR binding measurements (Biacore T200) on immobilized ER β; conditions: SPR, ER β on CM5 chip, 25°C
The reply should contain only the number, in RU.

Prompt line: Form field: reported Rmax of `O=c1c(O)c(-c2ccc(O)c(O)c2)oc2cc(O)cc(O)c12`
Response line: 13.28

Prompt line: Now this one: `O=c1c(O[C@@H]2O[C@H](CO)[C@@H](O)[C@H](O)[C@H]2O)c(-c2ccc(O)c(O)c2)oc2cc(O)cc(O)c12`
Response line: 9.57

Prompt line: Try this compound too: `O=C(/C=C/c1ccc(O)c2c1[C@H](C(=O)O[C@H](Cc1ccc(O)c(O)c1)C(=O)O)[C@@H](c1ccc(O)c(O)c1)O2)O[C@H](Cc1ccc(O)c(O)c1)C(=O)O`
Response line: 3.51

###

Molecular target: ER β (Homo sapiens, UniProt Q92731)
Construct: purchased Shanghai Tongwei Biotechnology Co., Ltd. (China)
Sequence (Q92731 whole entry): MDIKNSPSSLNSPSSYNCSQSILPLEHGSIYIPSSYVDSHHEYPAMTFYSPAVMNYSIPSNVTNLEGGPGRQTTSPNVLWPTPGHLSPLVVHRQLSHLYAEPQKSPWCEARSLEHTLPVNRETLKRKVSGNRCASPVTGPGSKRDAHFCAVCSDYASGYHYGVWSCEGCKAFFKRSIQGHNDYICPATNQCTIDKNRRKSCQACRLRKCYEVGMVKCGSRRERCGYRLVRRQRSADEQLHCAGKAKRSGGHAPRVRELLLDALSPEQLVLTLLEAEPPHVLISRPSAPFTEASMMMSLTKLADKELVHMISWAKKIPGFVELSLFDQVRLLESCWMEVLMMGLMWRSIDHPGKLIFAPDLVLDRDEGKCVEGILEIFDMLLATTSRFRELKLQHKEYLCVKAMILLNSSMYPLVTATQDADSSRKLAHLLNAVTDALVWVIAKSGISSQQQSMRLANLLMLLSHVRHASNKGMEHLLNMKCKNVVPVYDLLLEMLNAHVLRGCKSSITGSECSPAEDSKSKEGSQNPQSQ
Assay: SPR binding measurements (Biacore T200) on immobilized ER β
Experimental: SPR binding measurements were performed using a Biacore T200 biosensor system (Cytiva, USA). All the SPR-based materials were acquired from Cytiva. ER β was dissolved in PBS at 1.0 mg/ml and was then diluted in 20 μg/ml sodium acetate buffer at pH 5.0 and immobilized on a CM5 chip using an amine coupling kit. […] The running buffer was used as the blank control. […] The collected signals were monitored in real time, and a reference flow cell without immobilized ER β served as a non-specific binding control. […]
Measurement name: Kd (nM)
// note: answer is a bare numeric in nM

Prompt line: Consider the compound `O=C(/C=C/c1ccc(O)c2c1[C@H](C(=O)O[C@H](Cc1ccc(O)c(O)c1)C(=O)O)[C@@H](c1ccc(O)c(O)c1)O2)O[C@H](Cc1ccc(O)c(O)c1)C(=O)O` and give its measured Kd.
Response line: 2320

###

target: ER β (Homo sapiens); construct: purchased Shanghai Tongwei Biotechnology Co., Ltd. (China); test: SPR binding measurements (Biacore T200) on immobilized ER β; conditions: SPR, ER β on CM5 chip, 25°C, PBS running buffer; read-out: KD
pKd: −log10 of the molar value.
Measurement name: pKd

[[record]]
compound = "O=c1c(O[C@@H]2O[C@H](CO)[C@@H](O)[C@H](O)[C@H]2O)c(-c2ccc(O)c(O)c2)oc2cc(O)cc(O)c12 [Isoquercitrin]"
recorded_result = 5.98

[[record]]
compound = "O=c1c(O)c(-c2ccc(O)c(O)c2)oc2cc(O)cc(O)c12 [Quercetin]"
recorded_result = 5.90

[[record]]
compound = "C[C@@H]1O[C@@H](OC[C@H]2O[C@@H](Oc3c(-c4ccc(O)c(O)c4)oc4cc(O)cc(O)c4c3=O)[C@H](O)[C@@H](O)[C@@H]2O)[C@H](O)[C@H](O)[C@H]1O [Rutin]"
recorded_result = 6.03

[[record]]
compound = "O=C(/C=C/c1ccc(O)c2oc(-c3ccc(O)c(O)c3)cc12)O[C@H](Cc1ccc(O)c(O)c1)C(=O)O [Salvianolic acid C]"
recorded_result = 5.70

[[record]]
compound = "O=C(/C=C/c1ccc(O)c(O)c1)O[C@H](Cc1ccc(O)c(O)c1)C(=O)O [Rosmarinic acid]"
recorded_result = 5.88


###

target: ER β (Homo sapiens); construct: purchased Shanghai Tongwei Biotechnology Co., Ltd. (China); experiment: Affinity ultrafiltration LC-MS screening (AUF-LC-MS) of Arnebiae Radix extract against ER β; settings: specific binding = Aa/Ab (relative peak area active group / denatured group), extract 5.0 mg/ml, ER β 200 µg/ml, 37°C 60 min, <1.5 = non-ligand
Measurement name: Specific binding

[[record]]
molecule = "O=C(/C=C/c1ccc(O)c2c1[C@H](C(=O)O[C@H](Cc1ccc(O)c(O)c1)C(=O)O)[C@@H](c1ccc(O)c(O)c1)O2)O[C@H](Cc1ccc(O)c(O)c1)C(=O)O"
measurement_name = "Specific binding"
recorded_result = 2.24

[[record]]
molecule = "O=C(/C=C/c1ccc(O)c2oc(-c3ccc(O)c(O)c3)cc12)O[C@H](Cc1ccc(O)c(O)c1)C(=O)O"
measurement_name = "Specific binding"
recorded_result = 1.75

[[record]]
molecule = "O=C(O)CC(O)C(=O)O (stereo not drawn)"
measurement_name = "Specific binding"
recorded_result = 2.20

[[record]]
molecule = "N[C@@H](Cc1ccccc1)C(=O)O"
measurement_name = "Specific binding"
recorded_result = 2.39

[[record]]
molecule = "O=C(O)CC(O)(CC(=O)O)C(=O)O"
measurement_name = "Specific binding"
recorded_result = 1.78

[[record]]
molecule = "O=C(/C=C/c1ccc(O)c(O)c1)O[C@H](Cc1ccc(O)c(O)c1)C(=O)O"
measurement_name = "Specific binding"
recorded_result = 2.66

[[record]]
molecule = "O=c1c(O)c(-c2ccc(O)c(O)c2)oc2cc(O)cc(O)c12"
measurement_name = "Specific binding"
recorded_result = 1.54

[[record]]
molecule = "CCCC[C@H](N)C(=O)O"
measurement_name = "Specific binding"
recorded_result = 2.29

[[record]]
molecule = "O=c1c(O[C@@H]2O[C@H](CO)[C@@H](O)[C@H](O)[C@H]2O)c(-c2ccc(O)c(O)c2)oc2cc(O)cc(O)c12"
measurement_name = "Specific binding"
recorded_result = 1.91


###

molecular target: ER β (Homo sapiens, UniProt Q92731); construct: purchased Shanghai Tongwei Biotechnology Co., Ltd. (China); test: SPR binding measurements (Biacore T200) on immobilized ER β; conditions: SPR, ER β on CM5 chip, 25°C, PBS running buffer; read-out: Kd (dissociation rate constant)
Measurement name: koff (s⁻¹)

[[record]]
chemical_smiles = "O=C(/C=C/c1ccc(O)c2c1[C@H](C(=O)O[C@H](Cc1ccc(O)c(O)c1)C(=O)O)[C@@H](c1ccc(O)c(O)c1)O2)O[C@H](Cc1ccc(O)c(O)c1)C(=O)O"
measurement_name = "koff"
readout_units = "s⁻¹"
recorded_result = 0.00183

[[record]]
chemical_smiles = "O=C(/C=C/c1ccc(O)c(O)c1)O[C@H](Cc1ccc(O)c(O)c1)C(=O)O"
measurement_name = "koff"
readout_units = "s⁻¹"
recorded_result = 0.00266

[[record]]
chemical_smiles = "O=C(/C=C/c1ccc(O)c2oc(-c3ccc(O)c(O)c3)cc12)O[C@H](Cc1ccc(O)c(O)c1)C(=O)O"
measurement_name = "koff"
readout_units = "s⁻¹"
recorded_result = 0.00276

[[record]]
chemical_smiles = "O=c1c(O[C@@H]2O[C@H](CO)[C@@H](O)[C@H](O)[C@H]2O)c(-c2ccc(O)c(O)c2)oc2cc(O)cc(O)c12"
measurement_name = "koff"
readout_units = "s⁻¹"
recorded_result = 0.00314

